Assay: Mouse pharmacokinetic (PK) studies
Assay type: in vivo
Conditions: male, Swiss Albino, mouse, plasma; mice, 2 mg/kg intravenous injection and 20 mg/kg oral gavage, over 12 hours (FIG. 14)
MEASURED PARAMETER: bioavailability

- O=C1CCC(N2C(=O)c3ccc(N4CC(CN5CCN(c6cccc(-c7cnc8ccc(N9CCC[C@@H]9c9cccc(F)c9)nn78)n6)CC5)C4)cc3C2=O)C(=O)N1 (stereo partly shown): ~16%

Each recorded value in this set is attributed to patent US12065442B2.
